Molecular target: IκB-α kinase
Assay: IκB-α kinase inhibitory activity, in vitro kinase assay
pIC50: −log10 of the molar value.
property.name: pIC50

- mol: "CC(C)[C@H](CO)Nc1nc(Nc2cc(N)cc(Cl)c2)c2nnn(C(C)C)c2n1"
  pIC50: 4.10
- mol: "CC[C@H](CO)Nc1nc(Nc2ccc(C(=O)O)c(Cl)c2)c2nnn(C(C)C)c2n1"
  pIC50: 4.15

====

Target: p34^cdc2/cyclin B (CDC2) (Homo sapiens)
Sequence (P06493 whole entry, species assumed): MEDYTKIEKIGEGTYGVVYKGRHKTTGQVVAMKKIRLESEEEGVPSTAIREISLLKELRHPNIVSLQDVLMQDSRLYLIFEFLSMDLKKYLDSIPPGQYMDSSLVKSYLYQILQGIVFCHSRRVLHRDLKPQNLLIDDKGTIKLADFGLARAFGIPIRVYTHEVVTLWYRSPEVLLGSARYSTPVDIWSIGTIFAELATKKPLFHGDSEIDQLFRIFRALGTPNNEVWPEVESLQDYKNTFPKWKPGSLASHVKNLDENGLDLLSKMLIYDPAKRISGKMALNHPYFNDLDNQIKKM
Sequence (P14635 whole entry partner, species assumed): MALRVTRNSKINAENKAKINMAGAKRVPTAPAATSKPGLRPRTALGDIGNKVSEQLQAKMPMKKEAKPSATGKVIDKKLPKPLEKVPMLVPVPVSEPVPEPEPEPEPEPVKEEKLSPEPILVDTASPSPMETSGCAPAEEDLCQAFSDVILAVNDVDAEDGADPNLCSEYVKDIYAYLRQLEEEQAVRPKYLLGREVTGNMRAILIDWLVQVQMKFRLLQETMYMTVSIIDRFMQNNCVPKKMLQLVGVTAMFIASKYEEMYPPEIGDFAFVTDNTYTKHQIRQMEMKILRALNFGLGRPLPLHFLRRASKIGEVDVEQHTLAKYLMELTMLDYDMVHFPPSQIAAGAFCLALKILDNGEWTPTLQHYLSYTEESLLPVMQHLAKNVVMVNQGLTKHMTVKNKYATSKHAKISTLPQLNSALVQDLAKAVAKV
Assay: CDK inhibition assay, p34cdc2/cyclin B kinase, histone H1 phosphorylation
pIC50: −log10 of the molar value.
property.name: pIC50

Completed entries (count: 8):
- compound: "CC(C)[C@H](CO)Nc1nc(Nc2ccc(O)c(C(=O)O)c2)c2nnn(C(C)C)c2n1"
  pIC50: 4.47
- compound: "CC(C)[C@H](CO)Nc1nc(NCc2c(O)cc(Cl)cc2O)c2nnn(C(C)C)c2n1"
  pIC50: 4.74
- compound: "CC[C@H](CO)Nc1nc(Nc2ccc(Br)cc2)c2nnn(C(C)C)c2n1"
  pIC50: 4.59
- compound: "CC[C@H](CO)Nc1nc(NCc2c(O)cc(Cl)cc2O)c2nnn(C(C)C)c2n1"
  pIC50: 4.92
- compound: "CC(C)[C@H](CO)Nc1nc(Nc2ccc(Cl)c(N)c2)c2nnn(C(C)C)c2n1"
  pIC50: 4.62
- compound: "CC(C)[C@H](CO)Nc1nc(NC(CO)c2ccccc2)c2nnn(C(C)C)c2n1 (mixture of isomers)"
  pIC50: 4.30
- compound: "CC(C)n1nnc2c(Nc3cccc(Cl)c3)nc(NC3CCCCC3N)nc21 (centres unmarked)"
  pIC50: 5.15
- compound: "Cn1nnc2c(NCc3ccc(Cl)c(N)c3N)nc(NCCO)nc21"
  pIC50: 4.17

I. CC(C)[C@H](CO)Nc1nc(Nc2ccc(Cl)cc2)c2nnn(C(C)C)c2n1
II. Cn1nnc2c(NCc3ccccc3)nc(NCCCN)nc21
Pick one, I or II : lowest reported pIC50. Answer by quoting the chosen item's label.
II

A. Cn1nnc2c(Nc3cc(N)cc(Cl)c3)nc(NCCO)nc21
B. CC[C@H](CO)Nc1nc(NCc2c(O)cc(OC)cc2O)c2nnn(C(C)C)c2n1
C. CC[C@H](CO)Nc1nc(Nc2cc(N)cc(Cl)c2)c2nnn(C(C)C)c2n1
D. CC(C)[C@H](CO)Nc1nc(NCc2c(N)cccc2Cl)c2nnn(C(C)C)c2n1
E. CC(=O)c1cccc(CNc2nc(NCCO)nc3c2nnn3C)c1
List these items ordered by pIC50, big to small. Dear reader, please state the labels in the requested order.
D, B, C, A, E
(D: 5.00, B: 4.77, C: 4.55, A: 4.30, E: 4.10)

I. Cn1nnc2c(NCc3cccc(Cl)c3O)nc(NCCO)nc21
II. CC[C@H](CO)Nc1nc(Nc2ccc(Cl)c(C(=O)O)c2)c2nnn(C(C)C)c2n1
Pick one, I or II : lowest reported pIC50. Answer by quoting the chosen item's label.
I
(I: 4.15, II: 4.40)

P. CC[C@H](CO)Nc1nc(Nc2ccc(N)c(Cl)c2)c2nnn(C(C)C)c2n1
Q. CC(C)[C@H](CO)Nc1nc(NCc2ccc(Cl)c(O)c2O)c2nnn(C(C)C)c2n1
# returns the entry with the larger pIC50; inputs P and Q Answer by quoting the chosen item's label.
Q
(Q: 4.96, P: 4.30)

A. CC(=O)Oc1ccccc1CNc1nc(NCCO)nc2c1nnn2C
B. CC(=O)c1ccccc1CNc1nc(NCCO)nc2c1nnn2C
C. Cn1nnc2c(NCc3cccc(O)c3)nc(NCCO)nc21
Which order do these items take when sorted by rising pIC50? List them. Dear reader, please state the labels in the requested order.
B, A, C

a. CC(C)[C@H](CO)Nc1nc(NCc2ccc(O)c(O)c2)c2nnn(C(C)C)c2n1
b. CC[C@H](CO)Nc1nc(NCc2ccc(Cl)c(N)c2N)c2nnn(C(C)C)c2n1
# returns the entry with the larger pIC50; inputs a and b Answer by quoting the chosen item's label.
a

P. CC(=O)Oc1cccc(CNc2nc(N[C@@H](CO)C(C)C)nc3c2nnn3C(C)C)c1
Q. CC[C@H](CO)Nc1nc(NCc2cc(O)c(OC)cc2O)c2[nH]nc(C(C)C)c2n1
Pick one, P or Q : lowest reported pIC50. Answer by quoting the chosen item's label.
P
(P: 4.70, Q: 4.92)

P. Cn1nnc2c(Nc3ccc(O)c(C(=O)O)c3)nc(NCCO)nc21
Q. CC[C@H](CO)Nc1nc(NCc2cccc(O)c2)c2nnn(C(C)C)c2n1
# returns the entry with the larger pIC50; inputs P and Q Answer by quoting the chosen item's label.
Q
(Q: 5.00, P: 4.24)

Data origin, for the record: patent US7816350B2
